- System: WT HIV-1 strain (IIIB)
- Assay Overview: Anti-HIV-1 (IIIB, wild-type) activity in MT-4 cells, MTT method
- Type: cell-based
- Cond: selectivity index, CC50/EC50 (IIIB)
So I've got a bunch of molecules here, and I need their SI (IIIB) values.
Give bare numbers.

Study these solved cases before continuing.
Cc1cc(COc2cccnc2C#N)cc(C)c1Oc1ccnc(Nc2ccc(C#N)cc2)n1 316.9
COc1cccc(OCc2cc(C)c(Oc3ccnc(Nc4ccc(C#N)cc4)n3)c(C)c2)c1 195.6
Cc1cc(COc2cncc(C#N)c2)cc(C)c1Oc1ccnc(Nc2ccc(C#N)cc2)n1 246.4

Now for the molecule whose SI (IIIB) we want.
Query: Answer with SI (IIIB) of Cc1cc(COc2ccc(F)nc2)cc(C)c1Oc1ccnc(Nc2ccc(C#N)cc2)n1 measured for WT HIV-1 strain (IIIB).
Result: 1034.6

* * *

- Tested on: WT HIV-1 strain (IIIB)
- Assay Overview: Anti-HIV-1 (IIIB, wild-type) activity in MT-4 cells, MTT method
- Format: cell-based
- Cond: selectivity index, CC50/EC50 (IIIB)
So I've got a bunch of compounds here, and I need their SI (IIIB) values.
One number for each entry.

Smiles Record	Measured Parameter	Assay Value
Cc1cc(COc2cccc(CO)c2)cc(C)c1Oc1ccnc(Nc2ccc(C#N)cc2)n1	SI (IIIB)	113.3
Cc1cc(COc2ccc(NC(=O)OC(C)(C)C)cc2)cc(C)c1Oc1ccnc(Nc2ccc(C#N)cc2)n1	SI (IIIB)	136.7
Cc1cc(COc2ccc(CO)cc2)cc(C)c1Oc1ccnc(Nc2ccc(C#N)cc2)n1	SI (IIIB)	68.1

Okay, here is my list. What is SI (IIIB) for each of these?
1. Cc1cc(COc2cccnc2)cc(C)c1Oc1ccnc(Nc2ccc(C#N)cc2)n1
2. Cc1cc(COc2ccccc2CO)cc(C)c1Oc1ccnc(Nc2ccc(C#N)cc2)n1

Result:
[74.5, 149.1]

* * *

- System: WT HIV-1 strain (IIIB)
- Assay Overview: Anti-HIV-1 (IIIB, wild-type) activity in MT-4 cells, MTT method
- Format: cell-based
- Cond: Human immunodeficiency virus 1, IIIB, MT4, read-out: EC50 IIIB, MT-4 cells, WT HIV-1 IIIB, MTT
Measured Parameter: pEC50
One number for each entry, as −log10 of the molar value.

Okay, here is my list. What is pEC50 for each of these?
1. Cc1cc(COc2ccc(F)nc2)cc(C)c1Oc1ccnc(Nc2ccc(C#N)cc2)n1 [TF14]
2. COc1cccc(OCc2cc(C)c(Oc3ccnc(Nc4ccc(C#N)cc4)n3)c(C)c2)c1 [TF6]
3. Cc1cc(COc2cccnc2C#N)cc(C)c1Oc1ccnc(Nc2ccc(C#N)cc2)n1 [TF12]
4. Cc1cc(COc2ccccc2C#N)cc(C)c1Oc1ccnc(Nc2ccc(C#N)cc2)n1 [TF4]
5. COc1ccc(OCc2cc(C)c(Oc3ccnc(Nc4ccc(C#N)cc4)n3)c(C)c2)cc1 [TF5]
6. Cc1cc(COc2ccc(N)cc2)cc(C)c1Oc1ccnc(Nc2ccc(C#N)cc2)n1 [TF17]
7. Cc1cc(COc2cccc(CO)c2)cc(C)c1Oc1ccnc(Nc2ccc(C#N)cc2)n1 [TF9]
8. Cc1cc(COc2ccc(C#N)cc2)cc(C)c1Oc1ccnc(Nc2ccc(C#N)cc2)n1 [TF2]

Result:
1: 7.63; 2: 7.45; 3: 8.11; 4: 8.11; 5: 7.66; 6: 7.49; 7: 7.52; 8: 8.12

Okay, here is my list. What is pEC50 for each of these?
1. Cc1cc(COc2ccc([N+](=O)[O-])cc2)cc(C)c1Oc1ccnc(Nc2ccc(C#N)cc2)n1 [TF15]
2. Cc1cc(COc2cncc(C#N)c2)cc(C)c1Oc1ccnc(Nc2ccc(C#N)cc2)n1 [TF13]

Result:
[7.64, 7.71]
